FYI, the data here is from paper PMC9609971.

Target: crude intestinal α-glucosidase
Assay: In vitro α-glucosidase activity assay (p-nitrophenyl-α-D-glucopyranoside substrate)
Type: biochemical
Conditions: triplicate; ± SEM
Quantity: IC50 (µM)

Here's what some known entries look like.
{"columns": ["Molecule smiles", "IC50 / µM"],
 "data": [
  ["Oc1ccc(/C=N/NC(=S)NN=C(CSc2nc3ccccc3[nH]2)c2ccc(Br)cc2)cc1", 21.1],
  ["O=[N+]([O-])c1cccc(/C=N/NC(=S)NN=C(CSc2nc3ccccc3[nH]2)c2ccc(Br)cc2)c1", 14.1],
  ["O=[N+]([O-])c1ccccc1/C=N/NC(=S)NN=C(CSc1nc2ccccc2[nH]1)c1ccc(Br)cc1", 18.1]
]}

[P] O=[N+]([O-])c1ccc(/C=N/NC(=S)NN=C(CSc2nc3ccccc3[nH]2)c2ccc(-c3ccccc3)cc2)cc1
[Q] Fc1cccc(/C=N/NC(=S)N/N=C(\CSc2nc3ccccc3[nH]2)c2cccc(F)c2)c1
[R] O=[N+]([O-])c1cccc(/C=N/NC(=S)NN=C(CSc2nc3ccccc3[nH]2)c2ccc(Cl)c(Cl)c2)c1
[S] Oc1ccc(/C=N/NC(=S)NN=C(CSc2nc3ccccc3[nH]2)c2ccc(Cl)c(Cl)c2)cc1
Ranking field: IC50; order: falling. A ranking is expressed here by listing the labels in the requested order.
P, R, S, Q
(P: 17.2 µM, R: 7.1 µM, S: 2.2 µM, Q: 1.3 µM)

* * *

Molecular target: crude intestinal α-glucosidase
Experiment: In vitro α-glucosidase activity assay (p-nitrophenyl-α-D-glucopyranoside substrate)
Format: biochemical
Conditions: triplicate; ± SEM
Quantity: IC50 (µM)

Here's what some known entries look like.
{"columns": ["Molecule smiles", "Unit", "IC50"],
 "data": [
  ["O=[N+]([O-])c1ccccc1/C=N/NC(=S)NN=C(CSc1nc2ccccc2[nH]1)c1ccc(Cl)c(Cl)c1", "µM", 4.2],
  ["O=[N+]([O-])c1cccc(/C=N/NC(=S)N/N=C(\\CSc2nc3ccccc3[nH]2)c2ccccc2)c1", "µM", 22.1],
  ["O=[N+]([O-])c1ccc(/C=N/NC(=S)NN=C(CSc2nc3ccccc3[nH]2)c2ccc(Cl)c(Cl)c2)cc1", "µM", 3.1],
  ["O=[N+]([O-])c1cccc(/C=N/NC(=S)NN=C(CSc2nc3ccccc3[nH]2)c2ccc(-c3ccccc3)cc2)c1", "µM", 14.2],
  ["O=[N+]([O-])c1ccccc1/C=N/NC(=S)NN=C(CSc1nc2ccccc2[nH]1)c1ccc(-c2ccccc2)cc1", "µM", 14.2]
]}

[A] O=[N+]([O-])c1ccc(/C=N/NC(=S)NN=C(CSc2nc3ccccc3[nH]2)c2ccc(Br)cc2)cc1
[B] Oc1ccc(/C=N/NC(=S)NN=C(CSc2nc3ccccc3[nH]2)c2ccc(-c3ccccc3)cc2)cc1
For A and B , which recorded IC50 is lower? Write the label of whichever entry you select.
B
(B: 11.2 µM, A: 16.1 µM)

* * *

Biological target: Porcine pancreatic α-amylase (Sus scrofa, UniProt P00690)
Construct: α-amylase solution (Porcine pancreatic α-amylase); from tissue; host or cells: porcine pancreas (from the enzyme's name only)
Sequence (P00690 16-511): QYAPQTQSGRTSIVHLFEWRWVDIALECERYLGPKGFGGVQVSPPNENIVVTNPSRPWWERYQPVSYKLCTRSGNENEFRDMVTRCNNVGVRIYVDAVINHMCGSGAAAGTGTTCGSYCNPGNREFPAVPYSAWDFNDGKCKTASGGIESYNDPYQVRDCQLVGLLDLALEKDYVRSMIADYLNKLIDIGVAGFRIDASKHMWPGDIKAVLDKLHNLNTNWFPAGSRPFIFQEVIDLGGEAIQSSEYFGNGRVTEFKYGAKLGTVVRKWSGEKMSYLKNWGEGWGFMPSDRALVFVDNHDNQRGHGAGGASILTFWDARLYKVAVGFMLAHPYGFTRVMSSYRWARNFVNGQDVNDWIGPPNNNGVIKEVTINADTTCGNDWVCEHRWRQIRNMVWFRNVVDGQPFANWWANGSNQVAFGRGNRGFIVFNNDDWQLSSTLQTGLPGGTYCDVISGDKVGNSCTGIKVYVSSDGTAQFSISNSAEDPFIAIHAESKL
Assay: In vitro α-amylase activity assay (starch/dinitrosalicylic acid)
Type: biochemical
Conditions: triplicate; ± SEM
Experimental: α-Amylase inhibition was determined by an assay modified by Kwon, Apostolidis & Shetty. A total of 40 μL of sample and 40 μL of 0.02 M sodium phosphate buffer (pH 6.9 with 0.006 M sodium chloride) containing α-amylase solution (Porcine pancreatic α-amylase) (0.5 mg/mL) were incubated at 25 °C for 10 min. […] The reaction mixture was then diluted after adding 900 μL of distilled water, and the absorbance was measured at 540 nm. […]
Quantity: IC50 (µM)

{"columns": ["Compound", "IC50 (µM)"],
 "data": [
  ["O=[N+]([O-])c1cccc(/C=N/NC(=S)NN=C(CSc2nc3ccccc3[nH]2)c2ccc(-c3ccccc3)cc2)c1 [derivative 9]", 13.1]
]}

[a] Oc1ccc(/C=N/NC(=S)NN=C(CSc2nc3ccccc3[nH]2)c2ccc(-c3ccccc3)cc2)cc1 [derivative 10]
[b] Fc1cccc(/C=N/NC(=S)N/N=C(\CSc2nc3ccccc3[nH]2)c2cccc(F)c2)c1 [derivative 19]
[c] O=[N+]([O-])c1cccc(/C=N/NC(=S)NN=C(CSc2nc3ccccc3[nH]2)c2ccc(Cl)c(Cl)c2)c1 [derivative 14]
[d] O=[N+]([O-])c1ccccc1/C=N/NC(=S)NN=C(CSc1nc2ccccc2[nH]1)c1ccc(Br)cc1 [derivative 15]
[e] O=[N+]([O-])c1ccc(/C=N/NC(=S)NN=C(CSc2nc3ccccc3[nH]2)c2ccc(Cl)c(Cl)c2)cc1 [derivative 13]
Ranking field: IC50; order: falling. A ranking is expressed here by listing the labels in the requested order.
d, a, c, e, b
(d: 17.1 µM, a: 10.2 µM, c: 6.1 µM, e: 2.1 µM, b: 1.2 µM)

[a] Oc1ccc(/C=N/NC(=S)NN=C(CSc2nc3ccccc3[nH]2)c2ccc(Cl)c(Cl)c2)cc1 [derivative 12]
[b] O=[N+]([O-])c1ccc(/C=N/NC(=S)NN=C(CSc2nc3ccccc3[nH]2)c2ccc(Br)cc2)cc1 [derivative 17]
[c] O=[N+]([O-])c1ccccc1/C=N/NC(=S)NN=C(CSc1nc2ccccc2[nH]1)c1ccc(Cl)c(Cl)c1 [derivative 11]
Please order the records by their reported IC50, lowest number first. A ranking is expressed here by listing the labels in the requested order.
a, c, b

[1] Oc1ccc(/C=N/NC(=S)NN=C(CSc2nc3ccccc3[nH]2)c2ccc(Br)cc2)cc1 [derivative 16]
[2] O=[N+]([O-])c1cccc(/C=N/NC(=S)NN=C(CSc2nc3ccccc3[nH]2)c2ccc(Br)cc2)c1 [derivative 18]
For 1 and 2 , which recorded IC50 is lower? Write the label of whichever entry you select.
2
(2: 13.2 µM, 1: 20.1 µM)

* * *

Target: Porcine pancreatic α-amylase (Sus scrofa)
Construct: α-amylase solution (Porcine pancreatic α-amylase); from tissue; host or cells: porcine pancreas (from the enzyme's name only)
Assay: In vitro α-amylase activity assay (starch/dinitrosalicylic acid)
Type: biochemical
Conditions: triplicate; ± SEM
Quantity: IC50 (µM)

{"columns": ["Molecule smiles", "Study target", "Quantity", "Result"],
 "data": [
  ["O=[N+]([O-])c1ccc(/C=N/NC(=S)NN=C(CSc2nc3ccccc3[nH]2)c2ccc(-c3ccccc3)cc2)cc1", "Porcine pancreatic α-amylase (Sus scrofa)", "IC50", 15.2],
  ["O=[N+]([O-])c1ccccc1/C=N/NC(=S)NN=C(CSc1nc2ccccc2[nH]1)c1ccc(-c2ccccc2)cc1", "Porcine pancreatic α-amylase (Sus scrofa)", "IC50", 16.1],
  ["O=[N+]([O-])c1cccc(/C=N/NC(=S)N/N=C(\\CSc2nc3ccccc3[nH]2)c2ccccc2)c1", "Porcine pancreatic α-amylase (Sus scrofa)", "IC50", 21.1]
]}
